Hello, the source for this data is patent US20240317752A1, in case you need it.

# assay.system: BaF3 BRAF-KIAA1549 fusion cells (Homo sapiens)
# Construct: The BRAF-KIAA1549 fusion mutant was subcloned into pMXs-IRES-Blasticidin (RTV-016, Cell Biolabs, San Diego, CA); fused on or other part: Q9HCM3 (UPF0606 protein KIAA1549)
# Sequence (P15056 whole entry, change not shown, the tested form may be a part): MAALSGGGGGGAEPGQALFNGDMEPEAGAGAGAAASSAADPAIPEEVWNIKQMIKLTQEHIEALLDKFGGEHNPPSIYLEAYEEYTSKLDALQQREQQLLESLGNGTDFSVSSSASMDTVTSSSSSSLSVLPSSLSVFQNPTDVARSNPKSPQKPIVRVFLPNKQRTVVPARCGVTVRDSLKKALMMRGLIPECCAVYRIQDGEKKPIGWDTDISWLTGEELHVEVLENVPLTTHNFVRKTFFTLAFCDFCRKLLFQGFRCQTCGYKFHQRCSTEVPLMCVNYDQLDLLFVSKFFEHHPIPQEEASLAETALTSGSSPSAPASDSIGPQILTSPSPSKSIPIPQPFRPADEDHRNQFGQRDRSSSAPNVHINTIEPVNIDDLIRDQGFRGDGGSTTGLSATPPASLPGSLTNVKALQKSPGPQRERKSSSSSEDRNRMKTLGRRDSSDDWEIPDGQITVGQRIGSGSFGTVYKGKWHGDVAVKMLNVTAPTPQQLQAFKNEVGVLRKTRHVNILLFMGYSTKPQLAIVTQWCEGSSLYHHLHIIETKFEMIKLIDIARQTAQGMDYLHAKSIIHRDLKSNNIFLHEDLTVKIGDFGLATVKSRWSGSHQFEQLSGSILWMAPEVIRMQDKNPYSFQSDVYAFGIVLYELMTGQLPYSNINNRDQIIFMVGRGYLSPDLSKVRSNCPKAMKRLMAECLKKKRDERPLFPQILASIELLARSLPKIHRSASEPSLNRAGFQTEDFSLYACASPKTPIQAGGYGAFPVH
# test.summary: BaF3 BRAF-KIAA1549 fusion cell proliferation assay (CellTiterGlo)
# Type: cell-based
# condition.info: 96 hours incubation, potency code
# maps each entry to its GI50

The reported value for Cc1ccc(NC(=O)c2cc(C(F)(F)F)ccn2)cc1Nc1ncccc1-c1ncnc2[nH]c(OCCO)nc12 in terms of GI50 is 20 to 100 nM

The reported value for Cc1ccc(NC(=O)CN2CCCNCC2)cc1Nc1ncccc1-c1ncnc2[nH]cnc12 in terms of GI50 is ≥ 500 nM

The reported value for Cc1ccc(NC(=O)C[C@@H]2CCN[C@@H](C(F)(F)F)C2)cc1Nc1ncccc1-c1ncnc2[nH]cnc12 (single isomer, unassigned) in terms of GI50 is 100 to 500 nM

The reported value for Cc1ccc(NC(=O)c2cc(C(F)(F)F)c(OCCN(C)C)cn2)cc1Nc1ncccc1-c1ncnc2[nH]cnc12 in terms of GI50 is < 20 nM

The reported value for Cc1ccc(C(=O)Nc2cccc(C(F)(F)F)c2)cc1Nc1ncccc1-c1ncnc2[nH]cnc12 in terms of GI50 is < 20 nM

The reported value for Cc1ccc(C(=O)Nc2ccnc(C(F)(F)F)c2)cc1Nc1ncccc1-c1ncnc2[nH]cnc12 in terms of GI50 is 20 to 100 nM

The reported value for Cc1ccc(NC(=O)c2ccnc(C3(C#N)CCC3)c2)cc1Nc1ncccc1-c1ncnc2[nH]cnc12 in terms of GI50 is < 20 nM
